Target: MMP-7 (Homo sapiens, UniProt P09237)
Construct: purchased SIGMA CC1059
Sequence (P09237 95-267): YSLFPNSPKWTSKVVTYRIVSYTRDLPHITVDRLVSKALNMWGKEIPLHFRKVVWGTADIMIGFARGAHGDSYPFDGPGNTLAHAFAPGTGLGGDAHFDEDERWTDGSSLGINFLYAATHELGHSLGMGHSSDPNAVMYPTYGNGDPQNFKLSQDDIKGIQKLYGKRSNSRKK
Assay: FRET peptide cleavage efficiency with MMP-7 (standard pH 7.5; also pH 6.5)
Assay type: biochemical
Conditions: t = 15 min (Table 9)
Square brackets hold non-standard residues; d marks the D form. Ends that are not written are not given here. Tyr(3-NO2) = N[C@@H](Cc1ccc(O)c([N+](=O)[O-])c1)C(=O)O; 2Abz = Nc1ccccc1C(=O)O
Reported % cleavage MMP-7 t = 15 min values follow for various sequences

- constructSequence: "RGRRAANLVRPLGYFGKL ([2Abz]RGRRAANLVRPLGYFGKL[Tyr(3-NO2)]-NH2) [LNK060]"
  % cleavage MMP-7 t = 15 min: "0%"
- constructSequence: "SGRVANLVG (not fully specified (N-terminus, C-terminus)) [LNK017]"
  % cleavage MMP-7 t = 15 min: "62%"
- constructSequence: "SGRVAGLVG ([2Abz]SGRVAGLVG[Tyr(3-NO2)]-NH2) [LNK016]"
  % cleavage MMP-7 t = 15 min: "11%"
- constructSequence: "SGRVYMLQG ([2Abz]SGRVYMLQG[Tyr(3-NO2)]-NH2) [LNK044]"
  % cleavage MMP-7 t = 15 min: "1%"
- constructSequence: "RGRKSPANLVG ([2Abz]RGRKSPANLVG[Tyr(3-NO2)]-NH2) [LNK034]"
  % cleavage MMP-7 t = 15 min: "32%"
- constructSequence: "RGRRVANPLGLAGSG ([2Abz]RGRRVANPLGLAGSG[Tyr(3-NO2)]-NH2) [LNK050]"
  % cleavage MMP-7 t = 15 min: "1%"
- constructSequence: "HSSKLQYFGKL ([2Abz]HSSKLQYFGKL[Tyr(3-NO2)]-NH2) [LNK061]"
  % cleavage MMP-7 t = 15 min: "0%"
- constructSequence: "RGRRHSSKLQPLGYFGKL ([2Abz]RGRRHSSKLQPLGYFGKL[Tyr(3-NO2)]-NH2) [LNK062]"
  % cleavage MMP-7 t = 15 min: "0%"
- constructSequence: "RQRKVANLVG ([2Abz]RQRKVANLVG[Tyr(3-NO2)]-NH2) [LNK032]"
  % cleavage MMP-7 t = 15 min: "20%"

---

Target: MMP-7 (Homo sapiens)
Construct: purchased SIGMA CC1059
Sequence (P09237 95-267): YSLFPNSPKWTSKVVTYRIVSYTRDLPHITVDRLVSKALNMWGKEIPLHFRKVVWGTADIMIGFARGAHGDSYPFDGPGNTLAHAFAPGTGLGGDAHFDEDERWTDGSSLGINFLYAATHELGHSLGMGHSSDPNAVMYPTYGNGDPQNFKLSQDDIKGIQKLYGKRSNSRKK
Assay: FRET peptide cleavage efficiency with MMP-7 (standard pH 7.5; also pH 6.5)
Assay type: biochemical
Settings: t = 60 min; standard conditions (Table 8)
Square brackets hold non-standard residues; d marks the D form. Ends that are not written are not given here. Tyr(3-NO2) = N[C@@H](Cc1ccc(O)c([N+](=O)[O-])c1)C(=O)O; 2Abz = Nc1ccccc1C(=O)O

- constructSequence: "SGRVAPYMLQG ([2Abz]SGRVAPYMLQG[Tyr(3-NO2)]-NH2) [LNK042]"
  % cleavage MMP-7 t = 60 min, %: 100
- constructSequence: "RGRKPYMLQG ([2Abz]RGRKPYMLQG[Tyr(3-NO2)]-NH2) [LNK035]"
  % cleavage MMP-7 t = 60 min, %: 80
- constructSequence: "RGRKVANLVG ([2Abz]RGRKVANLVG[Tyr(3-NO2)]-NH2) [LNK031]"
  % cleavage MMP-7 t = 60 min, %: 74

---

Catalogue of substances with associated % cleavage uPA t = 15 min
target: uPA (Homo sapiens, UniProt P00749); test: FRET peptide cleavage efficiency with uPA; format: biochemical; settings: t = 15 min; 200 uM linker, 1 ug/ml protease, 37° C., buffer A pH 8.5
Square brackets hold non-standard residues; d marks the D form. Ends that are not written are not given here. Tyr(3-NO2) = N[C@@H](Cc1ccc(O)c([N+](=O)[O-])c1)C(=O)O; Nle = CCCC[C@H](N)C(=O)O; 2Abz = Nc1ccccc1C(=O)O

- substance: "GSGSGSGS ([2Abz]GSGSGSGS[Tyr(3-NO2)]-NH2) [LNK064]"
  displayUnit: "%"
  % cleavage uPA t = 15 min: 0
- substance: "RGRRVANYFGKL ([2Abz]RGRRVANYFGKL[Tyr(3-NO2)]-NH2) [LNK055]"
  displayUnit: "%"
  % cleavage uPA t = 15 min: 2
- substance: "SGRVANPLGGSG ([2Abz]SGRVANPLGGSG[Tyr(3-NO2)]-NH2) [LNK053]"
  displayUnit: "%"
  % cleavage uPA t = 15 min: 1
- substance: "RGRRVANPLGLAGSG ([2Abz]RGRRVANPLGLAGSG[Tyr(3-NO2)]-NH2) [LNK050]"
  displayUnit: "%"
  % cleavage uPA t = 15 min: 1
- substance: "RQRRS-Nle-PLGLAG ([2Abz]RQRRS[Nle]PLGLAG[Tyr(3-NO2)]-NH2) [LNK025]"
  displayUnit: "%"
  % cleavage uPA t = 15 min: 0
- substance: "SGRVLRKAGPANLVG ([2Abz]SGRVLRKAGPANLVG[Tyr(3-NO2)]-NH2) [LNK014]"
  displayUnit: "%"
  % cleavage uPA t = 15 min: 0
- substance: "SSRGRRGPYMLQG ([2Abz]SSRGRRGPYMLQG[Tyr(3-NO2)]-NH2) [LNK021]"
  displayUnit: "%"
  % cleavage uPA t = 15 min: 5
- substance: "RGRRHSSKLQPLGYFGKL ([2Abz]RGRRHSSKLQPLGYFGKL[Tyr(3-NO2)]-NH2) [LNK062]"
  displayUnit: "%"
  % cleavage uPA t = 15 min: 0
- substance: "RGRRVANPLGYFGKL ([2Abz]RGRRVANPLGYFGKL[Tyr(3-NO2)]-NH2) [LNK058]"
  displayUnit: "%"
  % cleavage uPA t = 15 min: 1
- substance: "RSSYYSL ([2Abz]RSSYYSL[Tyr(3-NO2)]-NH2) [LNK076]"
  displayUnit: "%"
  % cleavage uPA t = 15 min: 0
- substance: "SSRVFRKPANLAG ([2Abz]SSRVFRKPANLAG[Tyr(3-NO2)]-NH2) [LNK019]"
  displayUnit: "%"
  % cleavage uPA t = 15 min: 4
- substance: "RSSYRSL ([2Abz]RSSYRSL[Tyr(3-NO2)]-NH2) [LNK075]"
  displayUnit: "%"
  % cleavage uPA t = 15 min: 2
- substance: "KSKQHSL ([2Abz]KSKQHSL[Tyr(3-NO2)]-NH2) [LNK077]"
  displayUnit: "%"
  % cleavage uPA t = 15 min: 0
- substance: "SGRVAGLVG ([2Abz]SGRVAGLVG[Tyr(3-NO2)]-NH2) [LNK016]"
  displayUnit: "%"
  % cleavage uPA t = 15 min: 2
- substance: "RGRRAANLVRPLGYFGKL ([2Abz]RGRRAANLVRPLGYFGKL[Tyr(3-NO2)]-NH2) [LNK060]"
  displayUnit: "%"
  % cleavage uPA t = 15 min: 2
- substance: "SGRVLTLRKAALPLAM ([2Abz]SGRVLTLRKAALPLAM[Tyr(3-NO2)]-NH2) [LNK020]"
  displayUnit: "%"
  % cleavage uPA t = 15 min: 11
- substance: "SGRVLGPLNLSG ([2Abz]SGRVLGPLNLSG[Tyr(3-NO2)]-NH2) [LNK008]"
  displayUnit: "%"
  % cleavage uPA t = 15 min: 1
- substance: "RRLNYSL ([2Abz]RRLNYSL[Tyr(3-NO2)]-NH2) [LNK074]"
  displayUnit: "%"
  % cleavage uPA t = 15 min: 0

---

biological target: Kallikrein-3 (Homo sapiens, UniProt P07288); test: FRET peptide cleavage efficiency with Kallikrein-3; assay type: biochemical; settings: t = 8 h; peptide 200 uM, Kallikrein-3 2 μg/ml, 37° C., pH 8
Sequence (P07288 25-261, species assumed): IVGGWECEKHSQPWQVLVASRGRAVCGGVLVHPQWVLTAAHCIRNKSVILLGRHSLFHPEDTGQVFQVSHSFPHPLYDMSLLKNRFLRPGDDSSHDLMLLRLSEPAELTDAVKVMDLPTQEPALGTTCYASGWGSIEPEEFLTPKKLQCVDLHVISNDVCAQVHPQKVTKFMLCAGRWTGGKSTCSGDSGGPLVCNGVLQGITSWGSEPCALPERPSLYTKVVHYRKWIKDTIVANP
Square brackets hold non-standard residues; d marks the D form. Ends that are not written are not given here. Tyr(3-NO2) = N[C@@H](Cc1ccc(O)c([N+](=O)[O-])c1)C(=O)O; 2Abz = Nc1ccccc1C(=O)O
Please mark True if the recorded Kallikrein-3 t = 8 h % cleavage is equal to or greater than 40%, and False if it falls below.

- substance: "KLYSSKQ ([2Abz]KLYSSKQ[Tyr(3-NO2)]-NH2) [LNK071]"
  class: "True"
- substance: "GSSVYSGR ([2Abz]GSSVYSGR[Tyr(3-NO2)]-NH2) [LNK080]"
  class: "True"
- substance: "RRLHYSL ([2Abz]RRLHYSL[Tyr(3-NO2)]-NH2) [LNK073]"
  class: "True"
- substance: "GSGSGSGS ([2Abz]GSGSGSGS[Tyr(3-NO2)]-NH2) [LNK064]"
  class: "False"
- substance: "HSSKLQYFGKL ([2Abz]HSSKLQYFGKL[Tyr(3-NO2)]-NH2) [LNK061]"
  class: "False"
- substance: "RSSYYSL ([2Abz]RSSYYSL[Tyr(3-NO2)]-NH2) [LNK076]"
  class: "False"
- substance: "RGRRHSSKLQPLGYFGKL ([2Abz]RGRRHSSKLQPLGYFGKL[Tyr(3-NO2)]-NH2) [LNK062]"
  class: "True"
- substance: "SGRHSSKLQPLGYFGKL ([2Abz]SGRHSSKLQPLGYFGKL[Tyr(3-NO2)]-NH2) [LNK063]"
  class: "True"
- substance: "SQYQSSPG ([2Abz]SQYQSSPG[Tyr(3-NO2)]-NH2) [LNK067]"
  class: "True"

FYI, the data here is from patent US20240400614A1.
